Entries and their measured width of inhibition zone follow.
System: Candida albicans
measurementNotes: agar well diffusion assay, C. albicans
Format: cell-based
appliedConditions: 48 hr; from edge of agar well
experimentalReadout: width of inhibition zone

molecule	observedMeasurement
CCCCCc1cc(O)c2c(c1)OC(C)(CCCC(C)C)CC2 (stereo not shown)	2. mm
CC(C)=CCCC1(C)C=Cc2ccc(O)cc2O1 (stereo not shown)	3. mm
CCCCCc1cc(O)c2c(c1)OC(C)(CCC=C(C)C)C=C2 (stereo not shown)	4.0 mm
CC(C)=CCCC1(C)C=Cc2c(O)cccc2O1 (stereo not shown)	7. mm

* * *

Measured MIC, listed per entry.
System: Mycobacterium smegmatis
measurementNotes: MIC, two-fold (broth) serial dilution, M. smegmatis
Assay type: cell-based
appliedConditions: Mycolicibacterium smegmatis, 48 h; read-out: MIC

molecule	targetUnderTest	MIC, µg/mL
CC(C)=CCCC1(C)C=Cc2c(O)cc(C)cc2O1 (centres unmarked)	Mycobacterium smegmatis	6.25
CC(C)=CCCC1(C)C=Cc2ccc(O)cc2O1 (centres unmarked)	Mycobacterium smegmatis	25
CC(C)=CCCC1(C)C=Cc2c(O)cccc2O1 (centres unmarked)	Mycobacterium smegmatis	12.5
CCCCCc1cc(O)c2c(c1)OC(C)(CCC=C(C)C)C=C2 (centres unmarked)	Mycobacterium smegmatis	25
CCCCCc1cc(O)cc2c1C=CC(C)(CCC=C(C)C)O2 (centres unmarked)	Mycobacterium smegmatis	25

* * *

Tested on: Saccharomyces cerevisiae
measurementNotes: agar well diffusion assay, S. cerevisiae
Assay type: cell-based
appliedConditions: 48 hr; from edge of agar well
experimentalReadout: width of inhibition zone (mm)

compound	targetUnderTest	experimentalReadout	observedMeasurement
CC(C)=CCCC1(C)C=Cc2c(O)cccc2O1 (centres unmarked)	Saccharomyces cerevisiae	width of inhibition zone	10.
CC(C)=CCCC1(C)C=Cc2ccc(O)cc2O1 (centres unmarked)	Saccharomyces cerevisiae	width of inhibition zone	2.
C[C@@H]1[C@H](O)[C@@H](C)/C=C/C=C/C=C/C=C/C=C/C=C/C=C/[C@H](O[C@@H]2O[C@H](C)[C@@H](O)[C@H](N)[C@@H]2O)C[C@@H]2O[C@](O)(C[C@@H](O)C[C@@H](O)[C@H](O)CC[C@@H](O)C[C@@H](O)CC(=O)O[C@H]1C)C[C@H](O)[C@H]2C(=O)O [Amphotericin B, reference compound]	Saccharomyces cerevisiae	width of inhibition zone	7.
CCCCCc1cc(O)c2c(c1)OC(C)(CCC=C(C)C)C=C2 (centres unmarked)	Saccharomyces cerevisiae	width of inhibition zone	8.
CCCCCc1cc(O)c2c(c1)OC(C)(CCCC(C)C)CC2 (centres unmarked)	Saccharomyces cerevisiae	width of inhibition zone	7.

* * *

Test system: Escherichia coli
measurementNotes: agar well diffusion assay, E. coli
Type: cell-based
appliedConditions: 48 hr; from edge of agar well
experimentalReadout: width of inhibition zone

compound	observedMeasurement
CC(C)=CCCC1(C)C=Cc2ccc(O)cc2O1 (centres unmarked)	2. mm
CCCCCc1cc(O)c2c(c1)OC(C)(CCC=C(C)C)C=C2 (centres unmarked)	5. mm
[H]/N=C(/N)N[C@H]1[C@H](O)[C@@H](O)[C@H](O[C@@H]2O[C@@H](C)[C@](O)(C=O)[C@H]2O[C@@H]2O[C@@H](CO)[C@H](O)[C@@H](O)[C@@H]2NC)[C@@H](N/C(N)=N\[H])[C@@H]1O [Streptomycin SO4, reference compound]	2. mm
CC(C)=CCCC1(C)C=Cc2c(O)cccc2O1 (centres unmarked)	2. mm
CCCCCc1cc(O)c2c(c1)OC(C)(CCCC(C)C)CC2 (centres unmarked)	5. mm

* * *

System: Staphylococcus aureus
measurementNotes: agar well diffusion assay, S. aureus
Format: cell-based
appliedConditions: 24 hr; from edge of agar well
width of inhibition zone values, listed per item
experimentalReadout: width of inhibition zone (mm)

compound	targetUnderTest	observedMeasurement
[H]/N=C(/N)N[C@H]1[C@H](O)[C@@H](O)[C@H](O[C@@H]2O[C@@H](C)[C@](O)(C=O)[C@H]2O[C@@H]2O[C@@H](CO)[C@H](O)[C@@H](O)[C@@H]2NC)[C@@H](N/C(N)=N\[H])[C@@H]1O [Streptomycin SO4, reference compound]	Staphylococcus aureus	9.
CC(C)=CCCC1(C)C=Cc2ccc(O)cc2O1 (centres unmarked)	Staphylococcus aureus	10.
CC(C)=CCCC1(C)C=Cc2c(O)cccc2O1 (centres unmarked)	Staphylococcus aureus	15.
CCCCCc1cc(O)c2c(c1)OC(C)(CCCC(C)C)CC2 (centres unmarked)	Staphylococcus aureus	13.
CCCCCc1cc(O)c2c(c1)OC(C)(CCC=C(C)C)C=C2 (centres unmarked)	Staphylococcus aureus	10.

* * *

Test system: Bacillus subtilis
measurementNotes: agar well diffusion assay, B. subtilis
Assay type: cell-based
appliedConditions: 24 hr; from edge of agar well
experimentalReadout: width of inhibition zone (mm)

compound	targetUnderTest	observedMeasurement
CCCCCc1cc(O)c2c(c1)OC(C)(CCCC(C)C)CC2 (centres unmarked) [CBC (X)]	Bacillus subtilis	4.0
CC(C)=CCCC1(C)C=Cc2ccc(O)cc2O1 (centres unmarked) [Iso CBC (VII)]	Bacillus subtilis	10.
CC(C)=CCCC1(C)C=Cc2c(O)cccc2O1 (centres unmarked) [CBC (VI)]	Bacillus subtilis	10.
[H]/N=C(/N)N[C@H]1[C@H](O)[C@@H](O)[C@H](O[C@@H]2O[C@@H](C)[C@](O)(C=O)[C@H]2O[C@@H]2O[C@@H](CO)[C@H](O)[C@@H](O)[C@@H]2NC)[C@@H](N/C(N)=N\[H])[C@@H]1O [Streptomycin SO4, reference compound]	Bacillus subtilis	7.
CCCCCc1cc(O)c2c(c1)OC(C)(CCC=C(C)C)C=C2 (centres unmarked) [CBC (I)]	Bacillus subtilis	8.0

* * *

Tested on: Mycobacterium smegmatis
measurementNotes: agar well diffusion assay, M. smegmatis
Assay type: cell-based
appliedConditions: 24 hr; from edge of agar well
Listing of entries alongside the reported width of inhibition zone.
experimentalReadout: width of inhibition zone (mm)

molecule	experimentalReadout	unitsOfMeasure	observedMeasurement
CC(C)=CCCC1(C)C=Cc2ccc(O)cc2O1 (centres unmarked)	width of inhibition zone	mm	6.
CCCCCc1cc(O)c2c(c1)OC(C)(CCCC(C)C)CC2 (centres unmarked)	width of inhibition zone	mm	7.
CC(C)=CCCC1(C)C=Cc2c(O)cccc2O1 (centres unmarked)	width of inhibition zone	mm	20.
[H]/N=C(/N)N[C@H]1[C@H](O)[C@@H](O)[C@H](O[C@@H]2O[C@@H](C)[C@](O)(C=O)[C@H]2O[C@@H]2O[C@@H](CO)[C@H](O)[C@@H](O)[C@@H]2NC)[C@@H](N/C(N)=N\[H])[C@@H]1O [Streptomycin SO4, reference compound]	width of inhibition zone	mm	20.
CCCCCc1cc(O)c2c(c1)OC(C)(CCC=C(C)C)C=C2 (centres unmarked)	width of inhibition zone	mm	15.

* * *

Recorded measurements of MIC, one per entry
System: Trichophyton mentagrophytes
measurementNotes: MIC, two-fold (broth) serial dilution, T. mentagrophytes
Type: cell-based
appliedConditions: Trichophyton mentagrophytes, 48 h; read-out: MIC
experimentalReadout: MIC (µg/mL)

molecule	targetUnderTest	experimentalReadout	observedMeasurement
CCCCCc1cc(O)c2c(c1)OC(C)(CCC=C(C)C)C=C2 (stereo not shown)	Trichophyton mentagrophytes	MIC	25
CC(C)=CCCC1(C)C=Cc2c(O)cccc2O1 (stereo not shown)	Trichophyton mentagrophytes	MIC	25
CC(C)=CCCC1(C)C=Cc2ccc(O)cc2O1 (stereo not shown)	Trichophyton mentagrophytes	MIC	6.25
CC(C)=CCCC1(C)C=Cc2c(O)cc(C)cc2O1 (stereo not shown)	Trichophyton mentagrophytes	MIC	6.25
